Data provenance is paper PMC7356578.

# maps each entry to its k2 (kapp × SI, second-order rate constant)
# subject_of_test: T1, Recombinant human tissue kallikrein 1 (KLK1), wild type (human, UniProt P06870 25-262)
# T1 construct: tissue kallikrein 1 (KLK1), human, residues 25-262; Vector pE-SUMO3; also called kallikrein-related peptidase 1
# protocol: kinetics of protease inhibition (discontinuous assay); pseudo-first-order; 10 nM protease with 100-500 nM kallistatin variant, PBS, 0.1% PEG 8000, 22 ± 1 °C; apparent second-order rate constant kapp from kobs; k2 = kapp × SI
# run_parameters: both partners purified
Express it in M⁻¹ s⁻¹; write the number only.

Please review the following examples before continuing.
binder	value_measured
rKAL-R394D (natural protein, human, UniProt P29622 45-427, looked up, kallistatin (SERPINA4), human, residues 45-427; source: E. coli BL21 (DE3), purified (HisTrap FF crude, SENP2 digestion, HiTrap SP)) GSPSLKIAPANADFAFRFYYLIASETPGKNIFFSPLSISAAYAMLSLGACSHSRSQILEGLGFNLTELSESDVHRGFQHLLHTLNLPGHGLETRVGSALFLSHNLKFLAKFLNDTMAVYEAKLFHTNFYDTVGTIQLINDHVKKETRGKIVDLVSELKKDVLMVLVNYIYFKALWEKPFISSRTTPKDFYVDENTTVRVPMMLQDQEHHWYLHDRYLPCSVLRMDYKGDATVFFILPNQGKMREIEEVLTPEMLMRWNNLLRKRNFYKKLELHLPKFSISGSYVLDQILPRLGFTDLFSKWADLSGITKQQKLEASKSFHKATLDVDEAGTEAAAATSFAIKFFSAQTNDHILRFNRPFLVVIFSTSTQSVLFLGKVVDPTKP	1800
rKAL-307/308D (natural protein, human, UniProt P29622 45-427, looked up, kallistatin (SERPINA4), human, residues 45-427; double mutant of K307 and R308 to Asp; also called rKAL-K307/308D; source: E. coli BL21 (DE3), purified (HisTrap FF crude, SENP2 digestion, HiTrap SP)) GSPSLKIAPANADFAFRFYYLIASETPGKNIFFSPLSISAAYAMLSLGACSHSRSQILEGLGFNLTELSESDVHRGFQHLLHTLNLPGHGLETRVGSALFLSHNLKFLAKFLNDTMAVYEAKLFHTNFYDTVGTIQLINDHVKKETRGKIVDLVSELKKDVLMVLVNYIYFKALWEKPFISSRTTPKDFYVDENTTVRVPMMLQDQEHHWYLHDRYLPCSVLRMDYKGDATVFFILPNQGKMREIEEVLTPEMLMRWNNLLRDDNFYKKLELHLPKFSISGSYVLDQILPRLGFTDLFSKWADLSGITKQQKLEASKSFHKATLDVDEAGTEAAAATSFAIKFFSAQTNRHILRFNRPFLVVIFSTSTQSVLFLGKVVDPTKP	2000
rKAL-R300D (natural protein, human, UniProt P29622 45-427, looked up, kallistatin (SERPINA4), human, residues 45-427; source: E. coli BL21 (DE3), purified (HisTrap FF crude, SENP2 digestion, HiTrap SP)) GSPSLKIAPANADFAFRFYYLIASETPGKNIFFSPLSISAAYAMLSLGACSHSRSQILEGLGFNLTELSESDVHRGFQHLLHTLNLPGHGLETRVGSALFLSHNLKFLAKFLNDTMAVYEAKLFHTNFYDTVGTIQLINDHVKKETRGKIVDLVSELKKDVLMVLVNYIYFKALWEKPFISSRTTPKDFYVDENTTVRVPMMLQDQEHHWYLHDRYLPCSVLRMDYKGDATVFFILPNQGKMREIEEVLTPEMLMDWNNLLRKRNFYKKLELHLPKFSISGSYVLDQILPRLGFTDLFSKWADLSGITKQQKLEASKSFHKATLDVDEAGTEAAAATSFAIKFFSAQTNRHILRFNRPFLVVIFSTSTQSVLFLGKVVDPTKP	2900

Shifting focus to the binder that follows.
Problem: Output measured k2 (kapp × SI, second-order rate constant) for this item: rKAL-R259D (natural protein, human, UniProt P29622 45-427, looked up, kallistatin (SERPINA4), human, residues 45-427; source: E. coli BL21 (DE3), purified (HisTrap FF crude, SENP2 digestion, HiTrap SP)) GSPSLKIAPANADFAFRFYYLIASETPGKNIFFSPLSISAAYAMLSLGACSHSRSQILEGLGFNLTELSESDVHRGFQHLLHTLNLPGHGLETRVGSALFLSHNLKFLAKFLNDTMAVYEAKLFHTNFYDTVGTIQLINDHVKKETRGKIVDLVSELKKDVLMVLVNYIYFKALWEKPFISSRTTPKDFYVDENTTVRVPMMLQDQEHHWYLHDDYLPCSVLRMDYKGDATVFFILPNQGKMREIEEVLTPEMLMRWNNLLRKRNFYKKLELHLPKFSISGSYVLDQILPRLGFTDLFSKWADLSGITKQQKLEASKSFHKATLDVDEAGTEAAAATSFAIKFFSAQTNRHILRFNRPFLVVIFSTSTQSVLFLGKVVDPTKP
Result: 3500
